Reference source: patent US20100048950A1

Target: human glucocorticoid receptor (GR) complex (Homo sapiens)
Experiment: Glucocorticoid receptor competitive binding assay (fluorescence polarization)
Details: competition with TAMRA-labeled dexamethasone, read-out: potent activity (IC50) in the GR binding assay
Description: Compounds of the invention were evaluated for binding to the steroid receptor by a fluorescence polarization competitive binding assay. […] The affinity of the probe for the steroid receptor was then determined in a titration experiment. The fluorescence polarization value of the probe in assay buffer was measured on an SLM-8100 fluorometer using the excitation and emission maximum values described above. […]
measurement.kind: IC50

Worked cases, IC50 given:
- molecule: "Cc1cc(C)c(S(=O)(=O)NC(CSc2ccc(F)cc2Cl)C(F)(F)F)c(C)c1 (stereo not drawn)"
  value: "≤ 100 nM"
- molecule: "Cc1cc(C)c(S(=O)(=O)NC(CNc2cccc(C)c2C#N)C(F)(F)F)c(C)c1 (stereo not drawn)"
  value: "≤ 100 nM"
- molecule: "Cc1cc(C)c(S(=O)(=O)NC(CSc2c(C)cccc2Cl)C(F)(F)F)c(C)c1 (stereo not drawn)"
  value: "≤ 100 nM"
- molecule: "COC(=O)c1ccccc1N(C)CC(NS(=O)(=O)c1c(C)cc(C)cc1C)C(F)(F)F (stereo not drawn)"
  value: "≤ 100 nM"
- molecule: "Cc1cc(C)c(S(=O)(=O)NC(COc2cccc(C(F)(F)F)c2)C(F)(F)F)c(C)c1 (stereo not drawn)"
  value: "≤ 100 nM"
- molecule: "Cc1cc(C)c(S(=O)(=O)NC(COc2ccc(C)cc2Cl)C(F)(F)F)c(C)c1 (stereo not drawn)"
  value: "≤ 100 nM"
- molecule: "CCc1cccc(C)c1NCC(NS(=O)(=O)c1c(C)cc(C)cc1C)C(F)(F)F (stereo not drawn)"
  value: "≤ 100 nM"
- molecule: "Cc1cc(C)c(S(=O)(=O)NC(COc2cccc(F)c2)C(F)(F)F)c(C)c1 (stereo not drawn)"
  value: "≤ 100 nM"

What does the record list as IC50 for Cc1cc(C)c(S(=O)(=O)NC(COc2ccc(Cl)cc2F)C(F)(F)F)c(C)c1 (stereo not drawn) ?
≤ 100 nM

---

target: human glucocorticoid receptor (GR) complex (Homo sapiens, UniProt P04150); assay: Glucocorticoid receptor competitive binding assay (fluorescence polarization); details: competition with TAMRA-labeled dexamethasone, read-out: potent activity (IC50) in the GR binding assay
Sequence (P04150 whole entry, one chain of several): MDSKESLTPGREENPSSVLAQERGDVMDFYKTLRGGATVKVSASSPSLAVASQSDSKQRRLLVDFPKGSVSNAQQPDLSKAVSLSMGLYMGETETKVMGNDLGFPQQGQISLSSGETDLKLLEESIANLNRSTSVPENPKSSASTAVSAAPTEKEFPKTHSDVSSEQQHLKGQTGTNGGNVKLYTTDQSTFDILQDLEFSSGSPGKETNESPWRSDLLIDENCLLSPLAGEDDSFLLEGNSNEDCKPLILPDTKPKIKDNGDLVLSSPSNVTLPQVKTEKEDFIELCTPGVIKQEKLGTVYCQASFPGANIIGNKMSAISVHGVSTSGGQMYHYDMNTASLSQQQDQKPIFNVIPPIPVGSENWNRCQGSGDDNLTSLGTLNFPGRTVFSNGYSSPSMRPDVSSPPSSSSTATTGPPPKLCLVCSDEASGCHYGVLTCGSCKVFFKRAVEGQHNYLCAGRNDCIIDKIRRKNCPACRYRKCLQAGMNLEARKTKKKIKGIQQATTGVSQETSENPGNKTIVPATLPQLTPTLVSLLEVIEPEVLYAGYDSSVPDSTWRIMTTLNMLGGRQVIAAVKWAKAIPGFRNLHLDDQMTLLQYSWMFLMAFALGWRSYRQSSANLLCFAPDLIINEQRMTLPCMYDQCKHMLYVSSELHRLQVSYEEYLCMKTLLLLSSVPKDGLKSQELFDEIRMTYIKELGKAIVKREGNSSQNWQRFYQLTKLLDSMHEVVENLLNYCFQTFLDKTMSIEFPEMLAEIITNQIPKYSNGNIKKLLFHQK
measurement.kind: IC50

Worked cases, IC50 given:
- molecule: "CCOc1cccc(SCC(NS(=O)(=O)c2c(C)cc(C)cc2C)C(F)(F)F)c1 (stereo not drawn)"
  IC50: "≤ 100 nM"
- molecule: "CCc1ccccc1SCC(NS(=O)(=O)c1c(C)cc(C)cc1C)C(F)(F)F (stereo not drawn)"
  IC50: "≤ 100 nM"

What does the record list as IC50 for Cc1cc(C)c(S(=O)(=O)NC(CSc2ccccc2C(C)C)C(F)(F)F)c(C)c1 (stereo not drawn) ?
≤ 100 nM
